Entry source: the supplement of paper PMC10567573

B1: KLHL14 (parent)
chain: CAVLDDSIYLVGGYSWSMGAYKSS

variants of: B1; experiment: protein stability index of a GFP-peptide fusion (GPS, HEK-293T) (PSI 1-6); higher = more stable; conditions: c terminus: a fixed tail appended;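 also: lentivirally expressed fusions sorted by FACS into six bins by GFP to DsRed ratio, PSI derived from sequencing read proportions per bin multiplied by bin number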
Listed variants paired with reported protein stability index
ENDPOINT_NAME: protein stability index

MUTATION	NUMERIC_VALUE
A20V	2.02
G19V	1.97
S17H	1.98
S23Y	1.98
D6Q	1.95
C1R	2.03
G13S	1.95
